Taken from patent US20240301052A1.

# tested_on: T1, Rhesus SLC34A2 (Rhesus, UniProt F7HDA3 1-690)
# T1 construct: whole, on cells
# T1 sequence: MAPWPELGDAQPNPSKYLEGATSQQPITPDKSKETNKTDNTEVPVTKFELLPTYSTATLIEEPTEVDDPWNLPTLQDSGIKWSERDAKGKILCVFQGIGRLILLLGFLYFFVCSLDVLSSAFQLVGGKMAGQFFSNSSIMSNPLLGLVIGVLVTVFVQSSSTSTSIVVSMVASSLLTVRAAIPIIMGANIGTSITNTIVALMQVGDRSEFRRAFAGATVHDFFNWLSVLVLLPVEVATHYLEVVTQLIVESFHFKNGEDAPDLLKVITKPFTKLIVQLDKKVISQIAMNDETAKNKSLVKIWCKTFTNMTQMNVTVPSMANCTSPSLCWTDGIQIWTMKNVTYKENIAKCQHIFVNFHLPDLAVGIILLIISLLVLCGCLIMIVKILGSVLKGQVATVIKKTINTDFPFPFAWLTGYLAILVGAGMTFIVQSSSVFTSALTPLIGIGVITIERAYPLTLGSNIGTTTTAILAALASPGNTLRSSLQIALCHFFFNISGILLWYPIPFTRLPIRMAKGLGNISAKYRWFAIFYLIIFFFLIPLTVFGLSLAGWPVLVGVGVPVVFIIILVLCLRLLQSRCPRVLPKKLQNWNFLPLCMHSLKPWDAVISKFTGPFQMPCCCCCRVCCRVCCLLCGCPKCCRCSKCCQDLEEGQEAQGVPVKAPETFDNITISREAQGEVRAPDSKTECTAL
# method_notes: FACS, HEK293/Rhesus SLC34A2 cells
Exercise: state measured Top (MFI) for each of the binders provided.
Please reply with the bare figure in MFI and do not write the unit itself.

Looking up xi62G10E4G8 hIgG1 (antibody, V domains shown, chimeric, hIgG1) VH: QVQLQQSGAEVVKPGASVKMSCKASGYTFPSYITHWVKQTPGQGLEWIGAIYPGNGDTSYIQKFKGKATLTADKSSSTAYMQLSSLTSEDSAVYYCARGTYGTSAWFTYWGQGTLVTVSA VL: DIVLTQSPATLSVTPGDSVSLSCRARQNIGNNLYWYQQKSHESPRLLIKYASQSISGIPSRFSGSGSGTDFTLTINSVETEDFGVYFCQQSFSWPLTFGAGTKLELK , I found its Top (MFI) recorded as 39100

For xi91C9F1 hIgG1 (antibody, V domains shown, chimeric, hIgG1) VH: EVQLQQSGPELVKPGTSVKISCKTSGFFFTEYIIHWVKQSHGRSLEWIGGIIPNNGVTNYKQNFRGKAALTADKSSNTAYMELRSLTSEDSAVYYCARWRNGYYSAMDSWGQGTSVTVSS VL: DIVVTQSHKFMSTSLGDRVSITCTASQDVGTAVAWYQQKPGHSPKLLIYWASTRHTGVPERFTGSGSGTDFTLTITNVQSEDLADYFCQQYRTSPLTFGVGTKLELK the binder record lists Top (MFI) as 15500

What the record says about xi90G10H7 hIgG1 (antibody, V domains shown, chimeric, hIgG1) VH: QVQLQQPGAVLVKPGASVKMSCKASGYTFTSYIIHWVKQTPGQGLEWVGAIYPGNGDASSIQKFKGKATLTVDKSSSTAYMQLSSLTSADSAVYYCARGHYYGSAAWFAYWGQGTLVTVSA VL: DILLTQSPAILSVSPGERVSFSCRASQNIGTGIHWYQQRTNGSLRLLIKYASESISGIPSRFSGSGSGTDFTLSINSVESEDIADYYCQQSNSWPLTFGAGTKLELK : Top (MFI) is 47400

Query xi63A11D5B4 hIgG1 (antibody, V domains shown, chimeric, hIgG1) VH: QVQLQQPGAELVKPGASVKMSCRTSGYTFITYNMHWVKQTPGQGREWIGAIYPGNGDTSYNQKFKGKATLTADKSSSTAYMQLNSLTSEDSAVYYCSISTIITTGAVDYWGQGTSVTVAS VL: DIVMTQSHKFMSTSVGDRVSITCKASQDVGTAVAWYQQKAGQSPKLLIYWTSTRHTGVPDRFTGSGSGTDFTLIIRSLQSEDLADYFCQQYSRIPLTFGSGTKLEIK yields Top (MFI) of 45500

Looking up xi55E5B6D12 hIgG1 (antibody, V domains shown, chimeric, hIgG1) VH: QVQLQQSGAEVVNSGASVKMSCKASGYTFTTYNMHWVKQTPGQGLEWIGAIYPGNGDTSYNQRFKGKATFTADRSSGTAYMQLSSLPSEDSAVYYCARGGYANGALVDWGQGTLVTVSA VL: DILMTQSHKFMSTSVGDRVTITCKASQDVGTAVAWYQNKPGQSPKLLIFWTSTRHTGVPDRFTGSGSGTDFTLTISNVQSEDLADYFCQQYSRQPLTFGPGTKLEIK , I found its Top (MFI) recorded as 46400
